Where do the numbers come from? From patent US20110269811A1.

Would you kindly list pIC50 for each of these molecules?
- tested_system: Recombinant human MAO-A (Homo sapiens)
- Sequence (P21397 whole entry): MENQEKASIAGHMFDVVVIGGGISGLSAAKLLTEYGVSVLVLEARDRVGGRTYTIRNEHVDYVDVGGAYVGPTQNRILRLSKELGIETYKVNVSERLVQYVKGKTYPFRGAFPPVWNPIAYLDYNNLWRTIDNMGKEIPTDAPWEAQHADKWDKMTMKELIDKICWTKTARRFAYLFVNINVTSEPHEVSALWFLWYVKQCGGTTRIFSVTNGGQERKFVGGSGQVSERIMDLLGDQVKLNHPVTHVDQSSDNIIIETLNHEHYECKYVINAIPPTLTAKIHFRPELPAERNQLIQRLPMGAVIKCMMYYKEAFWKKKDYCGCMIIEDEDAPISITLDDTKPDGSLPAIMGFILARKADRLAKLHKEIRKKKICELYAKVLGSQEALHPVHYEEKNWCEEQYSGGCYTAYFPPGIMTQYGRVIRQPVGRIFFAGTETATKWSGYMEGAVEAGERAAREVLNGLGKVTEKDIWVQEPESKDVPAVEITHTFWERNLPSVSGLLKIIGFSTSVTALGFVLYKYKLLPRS
- procedure_details: MAO-A activity, colorimetric method, tyramine substrate
- condition_label: recombinant human MAO-A
Structures can show the parent of a compound that is named as a salt.
One number for each entry, as −log10 of the molar value.

Here's what some known entries look like.
| molecule | pIC50 |
| --- | --- |
| NC/C(=C\Cl)CCc1cc(F)cc(C(F)(F)F)c1.O=C(O)C(F)(F)F [Compound I-40-Z, trifluoroacetate] | 3.20 |
| CC(C)(C)c1ccc(C/C(=C/F)CN)cc1.Cl [Compound I-15-Z, hydrochloride] | 3.92 |
| CCOc1ccc(C/C(=C\F)CN)cc1.Cl [Compound I-2-E, hydrochloride] | 4.07 |
| COc1ccc(C/C(=C/F)CN)cc1.Cl [Compound I-1-Z, hydrochloride] | 4.07 |
| NC/C(=C\F)CCc1ccc(F)cc1 | 4.64 |
| CC(C)c1ccc(C/C(=C/F)CN)cc1.Cl [Compound I-14-Z, hydrochloride] | 4.05 |
| CN(C)c1cccc(C/C=C(/F)CN)c1.Cl [II-11-E, hydrochloride] | 3.54 |
| COc1cccc(C/C(=C/F)CN)c1.Cl [Compound I-5-Z, hydrochloride] | 4.13 |

Report pIC50 for every entry below.
1. COc1ccc(CC/C(=C\Cl)CN)cc1.Cl [Compound I-44-Z, hydrochloride]
2. CC(C)Oc1ccc(C/C(=C\F)CN)cc1 [Compound I-8-E, hydrochloride]
3. COc1ccc(CC/C(=C/F)CN)cc1.Cl [Compound I-102-Z, hydrochloride]
4. CC(C)c1ccc(C/C(=C\F)CN)cc1.Cl [Compound I-14-E, hydrochloride]
5. COc1cccc(C/C=C(/F)CN)c1.Cl [II-8-E, hydrochloride]
6. Cl.NC/C(F)=C\Cc1cccc(OC(F)(F)F)c1 [II-10-E, hydrochloride]
7. Cl.NC/C(F)=C\Cc1ccccc1 [II-9-E, hydrochloride]

[3.98, 4.32, 6.21, 4.11, 2.96, 3.06, 2.92]

----------
- tested_system: human MAO-B (Homo sapiens)
- Sequence (P27338 whole entry): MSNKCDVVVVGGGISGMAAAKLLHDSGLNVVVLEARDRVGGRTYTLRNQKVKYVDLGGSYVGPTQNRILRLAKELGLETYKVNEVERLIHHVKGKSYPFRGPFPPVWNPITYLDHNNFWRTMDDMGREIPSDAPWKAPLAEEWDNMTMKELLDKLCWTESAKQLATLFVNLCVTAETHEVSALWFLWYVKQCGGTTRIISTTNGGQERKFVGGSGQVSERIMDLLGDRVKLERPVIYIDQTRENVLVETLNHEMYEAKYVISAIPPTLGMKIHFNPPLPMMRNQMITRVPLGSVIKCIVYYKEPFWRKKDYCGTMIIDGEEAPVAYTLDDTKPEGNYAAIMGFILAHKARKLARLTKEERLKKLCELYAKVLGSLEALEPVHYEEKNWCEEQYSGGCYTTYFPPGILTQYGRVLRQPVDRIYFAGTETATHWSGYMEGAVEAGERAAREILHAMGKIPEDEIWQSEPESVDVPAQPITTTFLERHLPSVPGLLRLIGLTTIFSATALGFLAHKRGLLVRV
- procedure_details: MAO-B activity, colorimetric method, benzylamine substrate
- condition_label: recombinant human MAO-B
Counter-ions that a name gives are not always drawn.
So basically: is IC50 under 10 µM? Then y. Not under? Then n.

Answered cases to consult:
| compound | tested_system | group_label |
| --- | --- | --- |
| Cl.NC/C(F)=C\Cc1ccc(F)cc1 [II-5-E, hydrochloride] | human MAO-B (Homo sapiens) | n |
| COc1ccc(CC/C(=C\Cl)CN)cc1.Cl [Compound I-44-Z, hydrochloride] | human MAO-B (Homo sapiens) | n |
| CC(C)Oc1ccc(C/C(=C\F)CN)cc1 [Compound I-8-E, hydrochloride] | human MAO-B (Homo sapiens) | n |
| Cl.NC/C(=C\F)Cc1cccc(F)c1 [Compound I-19-Z, hydrochloride] | human MAO-B (Homo sapiens) | y |
| COc1ccc(CC/C(=C/F)CN)cc1.Cl [Compound I-102-Z, hydrochloride] | human MAO-B (Homo sapiens) | y |
| CC(C)c1ccc(C/C(=C/F)CN)cc1.Cl [Compound I-14-Z, hydrochloride] | human MAO-B (Homo sapiens) | y |
| COc1cccc(OC/C=C(/F)CN)c1 [II-19-E] | human MAO-B (Homo sapiens) | n |
| CC(C)(C)c1ccc(C/C(=C/F)CN)cc1.Cl [Compound I-15-Z, hydrochloride] | human MAO-B (Homo sapiens) | n |

Attention now turns to another entry.
Given CC(C)c1ccc(C/C(=C\F)CN)cc1.Cl [Compound I-14-E, hydrochloride] , is recorded IC50 strictly lower than 10 µM?
y
